Molecular target: T1, full-length HDAC8 (UniProt Q9BY41 1-377)
T1 chain: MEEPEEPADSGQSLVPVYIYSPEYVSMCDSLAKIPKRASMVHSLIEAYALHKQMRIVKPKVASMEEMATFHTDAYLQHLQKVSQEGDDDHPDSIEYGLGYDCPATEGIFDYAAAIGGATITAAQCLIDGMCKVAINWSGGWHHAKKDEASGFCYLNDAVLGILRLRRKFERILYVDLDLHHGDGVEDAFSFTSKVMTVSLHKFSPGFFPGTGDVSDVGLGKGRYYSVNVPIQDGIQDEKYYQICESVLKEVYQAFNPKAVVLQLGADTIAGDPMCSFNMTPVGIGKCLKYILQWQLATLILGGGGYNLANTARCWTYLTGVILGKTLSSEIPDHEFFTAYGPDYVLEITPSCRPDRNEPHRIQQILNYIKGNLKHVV
Assay: FP
No end group written: not given here.
VALUE TYPE: Kd

Kindly indicate its recorded Kd. Item: C(BODIPY‑TMR)PRPLKEGSITQGTPLKYDTG
> 1000 µM
